What follows is a record of IC50 for human HDAC1 (Homo sapiens, UniProt Q13547).

MOLECULE	TEST TARGET	LT GT EQ	IC50, nM
CC(=O)SCC(=O)CCCCC[C@@H]1NC(=O)[C@H]2CCCN2C(=O)[C@H](Cc2ccccc2)NC(=O)C(C)(C)NC1=O [Ky-18, cyclo(-L-Ae9(Actmk)-Aib-L-Phe-D-Pro-)]	human HDAC1 (Homo sapiens, UniProt Q13547)	=	110
CCOCC(=O)CCCCC[C@@H]1NC(=O)[C@H]2CCCN2C(=O)[C@H](Cc2ccccc2)NC(=O)C(C)(C)NC1=O [Ky-10, cyclo(-L-Ae9(Emk)-Aib-L-Phe-D-Pro-)]	human HDAC1 (Homo sapiens, UniProt Q13547)	=	21
CC1(C)NC(=O)[C@H](CCCCC[S+]([O-])CC(=O)C(F)(F)F)NC(=O)[C@H]2CCCN2C(=O)[C@H](Cc2ccccc2)NC1=O (stereo partly drawn) [Ky-71]	human HDAC1 (Homo sapiens, UniProt Q13547)	>	100000
